- Test method notes: Lipophilicity, log D of the compound at pH 7.4 by potentiometric method
- Assay type: physicochemical
- Experimental context: buffer, read-out: logD
Measured attribute: logD
I only need the number, thanks.

Would you please look over these solved cases?
Briefly, logD measured for CN(C)C(=O)C(Cc1cscn1)CN1CCC2(CC1)OCc1ccc(F)cc12 (stereo unspecified) : 2.02

Briefly, logD measured for "Cc1cccc2c1CC[C@H](CN1CCC(c3c(Cl)cccc3Cl)CC1)C[C@@H]2O" : 3.56

Briefly, logD measured for CNC(=O)C(Cc1ccccc1Cl)CN1CCC2(CC1)OCCc1cc(Cl)sc12 (stereo unspecified) : 3.77

---
Briefly, logD measured for "COC(=O)CN1CN(c2ccccc2)C2(CCN(Cc3cccc4ccccc34)CC2)C1=O" : 3.85

Briefly, logD measured for CN(C)C(=O)C(CN1CCC2(CC1)OCCc1cc(F)sc12)Cn1cccn1.O=C(O)C(O)C(O)C(=O)O (single isomer, unassigned; (+)) : 2.84

Briefly, logD measured for CN(C)C(=O)C(Cc1ccccc1Cl)CN1CCC2(CC1)OCCc1cc(F)sc12 (single isomer, unassigned; (+)) : 4.38
